tested on: U-937; test: Antiproliferative activity against human U937 cells assessed as reduction in cell viability after 24 hrs by MTT assay; type: functional, cell-based; settings: U-937, 24 h
RESULT TYPE: IC50 (µM)

STRUCTURE STRING | OBSERVED MEASUREMENT
COc1cc(Nc2ncc(I)c(NCCCN)n2)cc(OC)c1OC | 39.9
CCN(CC)CCNc1nc(Nc2cc(OC)c(OC)c(OC)c2)ncc1I | 22
CNC(=O)c1ccccc1Oc1nc(Nc2cccc(Br)c2)ncc1Br | 49
CNC(=O)c1ccccc1Oc1nc(Nc2ccc(C)cc2C)ncc1Br | 49.6

###

system: A549; assay: Antiproliferative activity against human A549 cells assessed as reduction in cell viability after 24 hrs by MTT assay; format: functional, cell-based; conditions: A549, 24 h
pIC50: −log10 of the molar value.
RESULT TYPE: pIC50

STRUCTURE STRING | OBSERVED MEASUREMENT
CNC(=O)c1ccccc1Oc1nc(Nc2cccc(C(F)(F)F)c2)ncc1Br | 4.55
CNC(=O)c1ccccc1Oc1nc(Nc2ccccc2F)ncc1Br | 4.45
CNC(=O)c1ccccc1Oc1nc(Nc2ccc(C)cc2C)ncc1Br | 4.56

###

Quick reference for pIC50 among some compounds
system: U-937; assay: Antiproliferative activity against human U937 cells assessed as reduction in cell viability after 24 hrs by MTT assay; type: functional, cell-based; details: U-937, 24 h
pIC50: −log10 of the molar value.
RESULT TYPE: pIC50

STRUCTURE STRING | RESULT TYPE | CENSORING SIGN | OBSERVED MEASUREMENT
CNC(=O)c1ccccc1Oc1nc(Nc2cccc(C(C)C)c2)ncc1Br | pIC50 | = | 4.85
O=[N+]([O-])c1ccc(Oc2nc(Nc3ccc(Cl)cc3)ncc2Br)c(F)c1 | pIC50 | = | 4.37
Cc1cccc(Nc2ncc(Br)c(Oc3cccc([N+](=O)[O-])c3)n2)c1 | pIC50 | = | 4.29
CNC(=O)c1ccccc1Oc1nc(Nc2ccccc2OC)ncc1Br | pIC50 | = | 4.28
CNC(=O)c1ccccc1Oc1nc(Nc2ccc(C(F)(F)F)cc2)ncc1Br | pIC50 | < | 4.30
Cc1cccc(Nc2ncc(Br)c(Oc3cc(Cl)cc(Cl)c3)n2)c1 | pIC50 | < | 4.30
Cc1cccc(Nc2ncc(Br)c(Oc3ccc(Br)cc3)n2)c1 | pIC50 | = | 4.73
CNC(=O)c1ccccc1Oc1nc(Nc2cccc(C(F)(F)F)c2)ncc1Br | pIC50 | = | 4.34
CNC(=O)c1ccccc1Oc1nc(Nc2ccc(Br)cc2)ncc1Br | pIC50 | < | 4.30
CNC(=O)c1ccccc1Oc1nc(Nc2cccc(C)c2)ncc1Br | pIC50 | = | 4.80
CNC(=O)c1ccccc1Oc1nc(Nc2cc(OC)c(OC)c(OC)c2)ncc1Br | pIC50 | = | 4.60
COc1cc(Nc2ncc(Br)c(Oc3ccc([N+](=O)[O-])cc3F)n2)cc(OC)c1OC | pIC50 | = | 4.89
Cc1cccc(Nc2ncc(Br)c(Oc3ccc(OCc4ccccc4)cc3)n2)c1 | pIC50 | < | 4.30
CNC(=O)c1ccccc1Oc1nc(Nc2ccccc2F)ncc1Br | pIC50 | < | 4.30
O=[N+]([O-])c1ccc(Oc2nc(Nc3ccc(Br)cc3)ncc2Br)c(F)c1 | pIC50 | < | 4.30
CNC(=O)c1ccccc1Oc1nc(Nc2ccc3c(c2)OCO3)ncc1Br | pIC50 | < | 4.30
CNC(=O)c1ccccc1Oc1nc(Nc2cccc(OC)c2)ncc1Br | pIC50 | = | 4.61
Cc1cccc(Nc2ncc(Br)c(Oc3cccc(F)c3)n2)c1 | pIC50 | = | 4.71
COc1cc(Nc2nccc(NCCCN)n2)cc(OC)c1OC | pIC50 | < | 4.30
CCN(CC)CCNc1ccnc(Nc2cc(OC)c(OC)c(OC)c2)n1 | pIC50 | < | 4.30
CNC(=O)c1ccccc1Oc1nc(Nc2ccc(Cl)cc2F)ncc1Br | pIC50 | < | 4.30
CCOc1ccccc1Oc1nc(Nc2cccc(C)c2)ncc1Br | pIC50 | = | 4.41
